These data points were gathered from patent US20220380341A1.

Target: HIV-1 NefNL4-3 (Human immunodeficiency virus type 1 group M subtype B, UniProt P03406, A33V/T15A/T51N/V11I)
Experiment: Surface plasmon resonance binding to recombinant full-length Nef (NL4-3)
Details: read-out: Nef NL4-3 Binding, SPR 1:1 or 2-site fitting KD2; Table 1; 2-site fit, second component
Threshold 2 µM: Kd strictly smaller gives 1, otherwise 0.

Oc1c(CC2CCCCO2)c(-c2ccc(C(F)(F)F)cc2)nn1-c1nc2ccccc2[nH]1 (stereo not shown)    0
Oc1c(CCN2CCOCC2)c(-c2ccc(C(F)(F)F)cc2)nn1-c1nc2ccccc2[nH]1    0
CS(=O)(=O)c1ccc(-c2nn(-c3nc4cc(F)ccc4[nH]3)c(O)c2CCC2CCOCC2)cc1    1
O=S(=O)(c1cccnc1)N1CCC(c2nn(-c3nc4ccccc4[nH]3)c(O)c2CCc2ccc(F)cc2)CC1    0
Oc1c(CCc2ccc(F)cc2)c(CNCc2cccnc2)nn1-c1nc2ccccc2[nH]1    0
Oc1c(CC2CCCC2)c(-c2ccc(C(F)(F)F)cc2)nn1-c1nc2ccccc2[nH]1    0

* * *

Test system: TZM-bl cell line
Assay type: cell-based
Details: human, 1 μM
observable: % Cell Viability

CS(=O)(=O)c1ccc(-c2nn(-c3nc4cc(Cl)ccc4[nH]3)c(O)c2CCC2CCOCC2)cc1    97.9%
CC(C)(C)OC(=O)N1CCC(CCc2c(-c3cccc(S(C)(=O)=O)c3)nn(-c3nc4ccccc4[nH]3)c2O)CC1    83.7%
CC[C@H](C)[C@H](O)C(=O)N1CCC(c2nn(-c3nc4ccccc4[nH]3)c(O)c2CCc2ccc(F)cc2)CC1    91.0%
CC(C)(C)OC(=O)N1CCC(CCc2c(C3CC3)nn(-c3nc4cc(Cl)ccc4[nH]3)c2O)CC1    97.9%
Oc1c(CCC2CCNCC2)c(-c2ccc(C(F)(F)F)cc2)nn1-c1nc2ccccc2[nH]1    91.4%
O=C1CCCN1CCc1c(-c2ccc(C(F)(F)F)cc2)nn(-c2nc3ccccc3[nH]2)c1O    96.5%
Oc1c(CC2CCOCC2)c(-c2ccccc2F)nn1-c1nc2ccccc2[nH]1    99.3%
CC(=O)N1CCCC(c2nn(-c3nc4ccccc4[nH]3)c(O)c2CCc2ccc(F)cc2)C1 (stereo not drawn)    97.2%
Cc1ccn(CCc2c(-c3ccc(C(F)(F)F)cc3)nn(-c3nc4ccccc4[nH]3)c2O)n1    97.9%
Oc1c(CCc2ccc(F)cc2)c(C2CCNCC2)nn1-c1nc2ccc(Cl)cc2[nH]1    90.7%
CC(C)(C)c1nn(-c2nc3ccccc3[nH]2)c(O)c1CCc1ccc(F)cc1    98.7%
Oc1c(CCc2ccc(F)cc2)c(CNCc2cccnc2)nn1-c1nc2ccccc2[nH]1    100%
CC(C)(C)OC(=O)N1C[C@@H]2[C@H](C1)[C@H]2c1nn(-c2nc3ccccc3[nH]2)c(O)c1CCc1ccc(F)cc1    100%
Oc1c(CCc2ccc(F)cc2)c(CNCc2ccncc2)nn1-c1nc2ccccc2[nH]1    100%
Oc1c(CCc2ccc(F)cc2)c(CCCc2ccc(F)cc2)nn1-c1nc2cccnc2[nH]1    98.2%

* * *

Biological target: HIV-1 NefNL4-3 (Human immunodeficiency virus type 1 group M subtype B, UniProt P03406, A33V/T15A/T51N/V11I)
Test: Surface plasmon resonance binding to recombinant full-length Nef (NL4-3)
Details: Nef NL4-3 Binding, SPR 1:1 or 2-site fitting KD2, Table 1; 2-site fit, second component
Note to self: Kd under 2 µM means fulfilled, ties and anything higher get not fulfilled.

O=C(c1nn(-c2nc3ccccc3[nH]2)c(O)c1CCc1ccc(F)cc1)N1CCCCC1 [Compound I-406]    fulfilled
CC(C)(C)OC(=O)NCc1nn(-c2nc3ccccc3[nH]2)c(O)c1CCc1ccc(F)cc1 [Compound I-212]    fulfilled
CC[C@H](C)[C@H](O)C(=O)N1CCC(c2nn(-c3nc4ccccc4[nH]3)c(O)c2CCc2ccc(F)cc2)CC1 [Compound I-732]    fulfilled
Oc1c(CCc2ccc(F)cc2)c(-c2cccc(F)c2)nn1-c1nc2ccccc2[nH]1 [Compound I-110]    not fulfilled
Oc1c(CCc2ccc(F)cc2)c(-c2ccc(C(F)(F)F)cc2)nn1-c1nc2ccccc2[nH]1 [Compound I-106]    not fulfilled
Cc1ccc(-c2nn(-c3nc4ccccc4[nH]3)c(O)c2CCc2ccc(F)cc2)cc1 [Compound I-104]    not fulfilled
Oc1c(CCC2CCOCC2)c(-c2cccc(F)c2)nn1-c1nc2ccccc2[nH]1 [Compound I-150]    not fulfilled

* * *

Tested on: TZM-bl cell line
Format: cell-based
Settings: human, 1 μM
Each record here notes measured % Cell Viability.
observable: % Cell Viability

Oc1c(CC2CCCC2)c(-c2ccc(C(F)(F)F)cc2)nn1-c1nc2ccccc2[nH]1 [Compound I-123]    85.3%
Oc1c(CCc2ccc(F)cc2)c(-c2ccc(C(F)(F)F)cc2)nn1-c1nc2cccnc2[nH]1 [Compound I-301]    90.7%
Oc1c(CCc2ccc(F)cc2)c(C2CC2)nn1-c1nc2cc(Cl)ccc2[nH]1 [Compound I-170]    98.8%
O=C(OCc1ccccc1)N1CCC(c2nn(-c3nc4ccncc4[nH]3)c(O)c2CCc2ccc(F)cc2)CC1 [Compound I-310]    100%
Oc1c(CC2CCOCC2)c(-c2ccc(F)cc2)nn1-c1nc2cc(F)ccc2[nH]1 [Compound I-173]    85.7%
O=C(OCc1ccccc1)N1CCCC(c2nn(-c3nc4ccccc4[nH]3)c(O)c2CCc2ccc(F)cc2)C1 (stereo not drawn) [Compound I-160]    93.7%
Oc1c(CCc2ccncc2)c(-c2ccc(C(F)(F)F)cc2)nn1-c1nc2ccccc2[nH]1 [Compound I-101]    76.3%
Cn1ccc(-c2nn(-c3nc4ccccc4[nH]3)c(O)c2CCc2ccc(F)cc2)cc1=O [Compound I-133]    100%
CC(C)(C)OC(=O)N1CCC(Cc2nn(-c3nc4ccccc4[nH]3)c(O)c2CCc2ccc(F)cc2)CC1 [Compound I-770]    99.7%
Oc1c(CCc2ccc(F)cc2)c(-c2ccc(C(F)(F)F)cn2)nn1-c1nc2cccnc2[nH]1 [Compound I-302]    98.9%
CC(C)(C)OC(=O)N1CCC(c2nn(-c3nc4ccc(Cl)cc4[nH]3)c(O)c2CCc2ccc(F)cc2)CC1 [Compound I-216]    87.1%
CC(C)(C)OC(=O)N1CCC(CCc2c(-c3ccc(C(F)(F)F)cc3)nn(-c3nc4ccccc4[nH]3)c2O)CC1 [Compound I-204]    95.1%
Oc1c(CC2CCOCC2)c(C2CC(F)(F)C2)nn1-c1nc2cccnc2[nH]1 [Compound I-316]    99.7%
Oc1c(CC2CCCCO2)c(-c2ccc(C(F)(F)F)cc2)nn1-c1nc2ccccc2[nH]1 (stereo not drawn) [Compound I-122]    75.2%
CC(C)(C)OC(=O)N1CCC(CCc2c(-c3ccc(S(C)(=O)=O)cc3)nn(-c3nc4cc(Cl)ccc4[nH]3)c2O)CC1 [Compound I-215]    74.5%
CS(=O)(=O)N1CCC(Cc2c(-c3ccc(C(F)(F)F)cc3)nn(-c3nc4ccccc4[nH]3)c2O)CC1 [Compound I-718]    89.1%
Oc1c(CCc2ccc(F)cc2)c(-c2ccc(C(F)(F)F)nc2)nn1-c1nc2ccccc2[nH]1 [Compound I-135]    91.9%
CS(=O)(=O)N1CCC(c2nn(-c3nc4cc(Cl)ccc4[nH]3)c(O)c2CCn2nccn2)CC1 [Compound I-707]    100%
COCCc1nn(-c2nc3ccccc3[nH]2)c(O)c1CCc1ccc(F)cc1 [Compound I-125]    100%
Oc1c(CC2CCCOC2)c(-c2ccc(F)cc2)nn1-c1nc2ccccc2[nH]1 (stereo not drawn) [Compound I-175]    88.8%
CC(C)COC(=O)N1CCC(c2nn(-c3nc4ccccc4[nH]3)c(O)c2CCc2ccc(F)cc2)CC1 [Compound I-721]    84.3%
COC(=O)c1ccc(CCc2c(-c3ccccc3)nn(-c3nc4cc(Cl)ccc4[nH]3)c2O)cc1 [Compound I-171]    75.8%
Cn1cccc(CCc2c(-c3ccc(C(F)(F)F)cc3)nn(-c3nc4ccccc4[nH]3)c2O)c1=O [Compound I-137]    99.4%
CC(C)(C)OC(=O)N1CCC(c2nn(-c3nc4cc(F)c(F)cc4[nH]3)c(O)c2CCc2ccc(F)cc2)CC1 [Compound I-219]    79.2%
COC(=O)N1CCC(CCc2c(-c3ccc(C(F)(F)F)cn3)nn(-c3nc4ccccc4[nH]3)c2O)CC1 [Compound I-715]    99.1%
Oc1c(CCc2ccc(F)cc2)c(C2CCCO2)nn1-c1nc2ccccc2[nH]1 (stereo not drawn) [Compound I-136]    99.9%
Oc1c(CC2CCOCC2)c(-c2ccc(F)cc2F)nn1-c1nc2ccccc2[nH]1 [Compound I-187]    100%
Cn1c(-n2nc(-c3cccc(S(C)(=O)=O)c3)c(CCc3ccc(F)cc3)c2O)nc2ccccc21 [Compound I-405]    95.7%
Oc1c(CCc2ccc(F)cc2)c(C2CCC2)nn1-c1nc2ccccc2[nH]1 [Compound I-129]    99.3%
CC(C)(O)C(=O)N1CCC(CCc2c(C3CC3)nn(-c3nc4cc(Cl)ccc4[nH]3)c2O)CC1 [Compound I-712]    100%
